assay: Plasma and Brain Levels after oral dosing; format: in vivo; details: male, mouse, plasma, oral, 6 mg/kg, 6 mg/kg oral, fed, read-out: Cu, plasma
reported_metric: concentration at 1.5 h (nM)
The answer is to be given in nM; state only the numeric part.

Input line: So what's the measured concentration at 1.5 h for this one? C[C@H]1c2cccc(-c3cnn(C)c3)c2C[C@H](CO)N1C(=O)Cc1c(Cl)cccc1Cl
Output line: 4.67

====

Overview of recorded EC50 for various molecules
molecular target: human D1 receptor (Homo sapiens (Human)); assay: Human D1 Receptor PAM Assay (cAMP HTRF, potentiator mode with EC20 dopamine); conditions: HEK293 cells expressing human D1 receptor, 12 nM dopamine (EC20), cAMP; read-out: Abs EC50
Sequence (P21728 whole entry): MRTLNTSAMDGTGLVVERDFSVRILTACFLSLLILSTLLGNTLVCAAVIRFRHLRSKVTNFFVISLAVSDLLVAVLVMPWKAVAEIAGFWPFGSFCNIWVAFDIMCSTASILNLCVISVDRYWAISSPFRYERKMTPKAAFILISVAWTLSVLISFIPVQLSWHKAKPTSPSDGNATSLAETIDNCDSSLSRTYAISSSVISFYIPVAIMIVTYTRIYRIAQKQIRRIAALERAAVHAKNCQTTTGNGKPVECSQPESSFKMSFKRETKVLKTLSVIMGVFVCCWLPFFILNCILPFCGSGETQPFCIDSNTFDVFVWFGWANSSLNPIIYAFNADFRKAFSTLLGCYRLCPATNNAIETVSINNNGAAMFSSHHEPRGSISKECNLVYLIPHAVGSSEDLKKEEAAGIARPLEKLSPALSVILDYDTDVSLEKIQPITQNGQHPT
The answer is to be given in nM; state only the numeric part.

Below, 7 molecules whose answers are already recorded.
C[C@H]1c2cccc(-c3cnn(C4CC4)c3)c2C[C@H](CO)N1C(=O)Cc1c(Cl)cccc1Cl [Example 3]: 287
C[C@H]1c2cccc(-c3cn[nH]c3)c2C[C@H](CO)N1C(=O)Cc1c(F)cccc1Cl [Example 9]: 28
C[C@H]1c2cccc(-c3cn[nH]c3)c2C[C@H](CO)N1C(=O)Cc1ccccc1F [Example 13]: 484
C[C@H]1c2cccc(-c3cnn(C)c3)c2C[C@H](CO)N1C(=O)Cc1c(Cl)cccc1Cl [Example 1]: 16.4
C[C@H]1c2cccc(-c3cn[nH]c3)c2C[C@H](CO)N1C(=O)Cc1cc(F)ccc1Cl [Example 11]: 112
C[C@H]1c2cccc(-c3cn[nH]c3)c2C[C@H](CO)N1C(=O)Cc1cccc(F)c1F [Example 14]: 677
C[C@H]1c2cccc(-c3cn[nH]c3)c2C[C@H](CO)N1C(=O)Cc1c(F)cccc1F [Example 10]: 127

# context switch: different molecule, same EC50
Input line: So what's the measured EC50 for this one? C[C@H]1c2cccc(-c3cnn(C4COC4)c3)c2C[C@H](CO)N1C(=O)Cc1c(F)cccc1Cl [Example 6]
Output line: 42.2
